Target: 5-HT2B receptor (Homo sapiens)
Construct: host or cells: CHO-K1
Sequence (P41595 whole entry): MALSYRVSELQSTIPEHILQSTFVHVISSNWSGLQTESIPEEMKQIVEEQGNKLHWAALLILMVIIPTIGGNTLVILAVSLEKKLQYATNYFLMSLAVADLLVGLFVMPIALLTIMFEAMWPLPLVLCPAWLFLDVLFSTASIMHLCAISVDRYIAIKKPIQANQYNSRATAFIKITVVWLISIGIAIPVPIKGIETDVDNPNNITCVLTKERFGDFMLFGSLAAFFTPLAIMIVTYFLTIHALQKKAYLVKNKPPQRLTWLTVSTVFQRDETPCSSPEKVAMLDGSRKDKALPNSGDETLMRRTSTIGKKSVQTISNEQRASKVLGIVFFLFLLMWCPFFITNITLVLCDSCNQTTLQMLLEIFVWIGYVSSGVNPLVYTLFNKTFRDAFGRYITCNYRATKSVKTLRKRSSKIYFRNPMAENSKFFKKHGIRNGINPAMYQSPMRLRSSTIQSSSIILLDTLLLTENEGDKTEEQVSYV
Assay: FLIPR Ca2+ flux functional assay, agonist activity at 5-HT2B
Format: cell-based
Details: CHO-K1 cells, Ca2+ flux

COMPOUND: CCCN(CCC)CCc1c[nH]c2ccnc(OC)c12 [Example P-35]
Emax / %: 74.7

COMPOUND: COc1nccc2[nH]cc(CCN(C)C)c12 [Example P-5]
Emax / %: -0.87

COMPOUND: COc1ccc2[nH]cc(CCN(C)C(C)C)c2n1 [Example P-14]
Emax / %: 1.06

COMPOUND: CCN(C)CCc1c[nH]c2ncc(OC)cc12 [Example P-20]
Emax / %: 1.38

COMPOUND: COc1nccc2[nH]cc(CCN(C(C)C)C(C)C)c12 [Example P-36]
Emax / %: 48.9

COMPOUND: CN(C)CCc1c[nH]c2ncc(F)cc12 [Example P-24]
Emax / %: 6.16

COMPOUND: CCN(C)CCc1c[nH]c2nccc(F)c12 [Example P-33]
Emax / %: 0.01

COMPOUND: CCN(CC)CCc1c[nH]c2nccc(OC)c12 [Example P-26]
Emax / %: 3.08

COMPOUND: COc1ccnc2[nH]cc(CCN(C)C)c12 [Example P-4]
Emax / %: -0.27

COMPOUND: CCN(C)CCc1c[nH]c2ncc(F)cc12 [Example P-25]
Emax / %: 8.23

COMPOUND: CCN(C)CCc1c[nH]c2nccc(OC)c12 [Example P-28]
Emax / %: 0.69

COMPOUND: CCN(C)CCc1c[nH]c2ccnc(OC)c12 [Example P-37]
Emax / %: 2.6

COMPOUND: COc1ccnc2[nH]cc(CCN(C)C(C)C)c12 [Example P-29]
Emax / %: 0.59

COMPOUND: COc1ccc2[nH]cc(CCN(C)C)c2n1 [Example P-1]
Emax / %: -1.07

COMPOUND: CCN(C)CCc1c[nH]c2ccc(OC)nc12 [Example P-13]
Emax / %: 2.25

COMPOUND: CCN(CC)CCc1c[nH]c2ncc(OC)cc12 [Example P-17]
Emax / %: 0.37

COMPOUND: CCN(C)CCc1c[nH]c2ncc(C)cc12 [Example P-23]
Emax / %: 0.88

COMPOUND: COc1ccnc2[nH]cc(CCN(C(C)C)C(C)C)c12 [Example P-27]
Emax / %: 35.6

COMPOUND: CCN(CC)CCc1c[nH]c2ccc(OC)nc12 [Example P-10]
Emax / %: 47.1

COMPOUND: CCCN(CCC)CCc1c[nH]c2ncc(OC)cc12 [Example P-18]
Emax / %: 9.35

COMPOUND: COc1cnc2[nH]cc(CCN(C(C)C)C(C)C)c2c1 [Example P-19]
Emax / %: 13.3

COMPOUND: COc1cnc2[nH]cc(CCN(C)C(C)C)c2c1 [Example P-21]
Emax / %: 4.56

COMPOUND: COc1ccc2onc(CCN(C)C)c2c1 [Example P-9]
Emax / %: 2.53

COMPOUND: CCN(CC)CCc1c[nH]c2ccnc(OC)c12 [Example P-34]
Emax / %: 14.7

COMPOUND: CN(C)CCc1c[nH]c2nccc(F)c12 [Example P-32]
Emax / %: 0.14

COMPOUND: Cc1ccnc2[nH]cc(CCN(C)C)c12 [Example P-30]
Emax / %: 0.03

COMPOUND: COc1ccc2[nH]cc(CCN(C(C)C)C(C)C)c2n1 [Example P-12]
Emax / %: 102

COMPOUND: COc1nccc2[nH]cc(CCN(C)C(C)C)c12 [Example P-38]
Emax / %: 19.6

COMPOUND: Cc1cnc2[nH]cc(CCN(C)C)c2c1 [Example P-22]
Emax / %: 1.91

COMPOUND: CN(C)CCc1n[nH]c2cccc(O)c12 [Example P-56]
Emax / %: -0.39

COMPOUND: CCCN(CCC)CCc1c[nH]c2ccc(OC)nc12 [Example P-11]
Emax / %: 92.1

COMPOUND: CCN(C)CCc1c[nH]c2nccc(C)c12 [Example P-31]
Emax / %: 1.01
